System: Influenza B virus
method-summary: Antiviral activity against Influenza B virus (B/Hong Kong/05/1972) harboring wild type M2 channel infected in MDCK cells assessed as reduction of cytopathic effect after 72 hrs by MTS assay
Type: functional, cell-based
test-conditions: B/Hong Kong/05/1972, MDCK

{"compound": "CC12CC34CNCC3(C1)CC2(C)C4", "target-entity": "Influenza B virus", "EC50": "> 100 µM"}
{"compound": "C1NCC23CC4CC12CC4C3", "target-entity": "Influenza B virus", "EC50": "> 100 µM"}
{"compound": "NC12CC3CC(CC(C3)C1)C2 [AMANTADINE]", "target-entity": "Influenza B virus", "EC50": "> 500 µM"}
{"compound": "CC(N)C12CC3CC(CC(C3)C1)C2 (configuration not stated) [RIMANTADINE]", "target-entity": "Influenza B virus", "EC50": "> 500 µM"}
{"compound": "CC12CC34CN(C(=N)N)CC3(C1)CC2(C)C4", "target-entity": "Influenza B virus", "EC50": "> 100 µM"}
{"compound": "CCC12CC34CNCC3(C1)CC2(CC)C4", "target-entity": "Influenza B virus", "EC50": "> 100 µM"}
{"compound": "CN1CC23CC4CC2(CC4C3)C1", "target-entity": "Influenza B virus", "EC50": "> 100 µM"}
